# ASSAY_METHOD_TEXT: In vitro cytotoxic activity, CyQuant cell viability, 72 h
# Type: cell-based
# STUDY_CONDITIONS: mouse; MEF (non-cancerous cells); 72 h; read-out: LC50 ± SD
# Procedure: The used cell lines include MDA-MB-231 human breast adenocarcinoma cells, B16-F10 mouse metastatic melanoma cells and MEF primary mouse embryonic fibroblast. […] Cell viability was measured using a CyQuant® Direct Cell Proliferation Assay Kit (Life Technologies, Grand Island, NY, USA) following the manufacturer’s instruction. […] Cells were incubated for 1 h and fluorescence emission was measured at 535 nm with excitation at 480 nm in a microplate reader (Infinite 200 PRO, Tecan, Grödig, Austria). […]
QUANTITY_KIND: CC50 at 72 h (µM)

INSERT INTO measurements (smiles_text, number) VALUES
  ('COc1cc(O)c2c(c1)O[C@H](c1ccc(O)cc1)CC2=O', 146);

---

# ASSAY_TARGET: 5-hLOX (Homo sapiens)
# Construct: purchased Cayman Chemicals Inc. (Ann Arbor, MI, USA)
# Sequence (P09917 whole entry): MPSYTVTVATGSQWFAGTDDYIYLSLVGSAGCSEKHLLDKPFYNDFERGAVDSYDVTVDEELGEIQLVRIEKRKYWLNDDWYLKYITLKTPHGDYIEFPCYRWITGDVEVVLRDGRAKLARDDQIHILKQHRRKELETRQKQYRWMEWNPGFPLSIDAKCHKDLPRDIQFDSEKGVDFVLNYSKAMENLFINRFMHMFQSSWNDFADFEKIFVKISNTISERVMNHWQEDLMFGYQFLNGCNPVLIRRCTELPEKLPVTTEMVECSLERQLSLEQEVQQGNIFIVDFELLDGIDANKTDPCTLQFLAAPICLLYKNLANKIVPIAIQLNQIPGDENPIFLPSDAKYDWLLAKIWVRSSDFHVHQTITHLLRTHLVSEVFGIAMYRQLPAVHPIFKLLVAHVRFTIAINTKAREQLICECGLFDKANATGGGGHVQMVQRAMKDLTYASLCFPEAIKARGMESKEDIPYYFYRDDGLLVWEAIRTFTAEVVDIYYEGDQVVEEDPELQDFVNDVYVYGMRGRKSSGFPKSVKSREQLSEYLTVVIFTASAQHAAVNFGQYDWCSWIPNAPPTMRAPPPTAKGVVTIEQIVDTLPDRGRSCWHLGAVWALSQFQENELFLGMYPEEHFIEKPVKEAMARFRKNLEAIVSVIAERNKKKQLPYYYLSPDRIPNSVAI
# ASSAY_METHOD_TEXT: In vitro 5-hLOX enzyme assay (H2DCFDA fluorescence)
# Assay type: biochemical
# STUDY_CONDITIONS: Flavanones at 10 µM
Catalogue of inhibition at 10 µM readings, one per entry.
QUANTITY_KIND: inhibition at 10 µM (%)

INSERT INTO results (compound, result_unit, number) VALUES
  ('COc1cc(O)c2c(c1)O[C@H](c1ccc(O)c(O)c1)CC2=O', '%', 93),
  ('O=C1CC(c2ccc(O)c(O)c2)Oc2cc(O)cc(O)c21 (stereo not shown) [Compound 3, 5,7,3’,4’-Tetrahydroxyflavanone]', '%', 88),
  ('COc1cc(O)c2c(c1)O[C@H](c1ccc(O)cc1)CC2=O', '%', 61),
  ('COc1cc(C2CC(=O)c3c(O)cc(O)cc3O2)ccc1O (stereo not shown) [Compound 4, 3’-methoxy-4’,5,7-trihydroxyflavanone]', '%', 11.7);

---

# ASSAY_METHOD_TEXT: In vitro cytotoxic activity, CyQuant cell viability, 72 h
# Format: cell-based
# STUDY_CONDITIONS: mouse
QUANTITY_KIND: CC50 at 72 h

INSERT INTO results (compound, quantity_kind, result) VALUES
  ('COc1cc(O)c2c(c1)O[C@H](c1ccc(O)c(O)c1)CC2=O', 'CC50 at 72 h', '31000 nM'),
  ('CC(=O)O[C@H]1C(=O)[C@@]2(C)[C@H]([C@H](OC(=O)c3ccccc3)[C@]3(O)C[C@H](OC(=O)[C@H](O)[C@@H](NC(=O)c4ccccc4)c4ccccc4)C(C)=C1C3(C)C)[C@]1(OC(C)=O)CO[C@@H]1C[C@@H]2O [Taxol, reference compound]', 'CC50 at 72 h', '400 nM'),
  ('COc1cc([C@@H]2c3cc4c(cc3[C@@H](O[C@@H]3O[C@@H]5CO[C@@H](C)O[C@H]5[C@H](O)[C@H]3O)[C@H]3COC(=O)[C@H]23)OCO4)cc(OC)c1O [Etoposide, reference compound]', 'CC50 at 72 h', '1030 nM');

---

# ASSAY_TARGET: 5-hLOX (Homo sapiens)
# Construct: purchased Cayman Chemicals Inc. (Ann Arbor, MI, USA)
# ASSAY_METHOD_TEXT: In vitro 5-hLOX enzyme assay (H2DCFDA fluorescence)
# Type: biochemical
# STUDY_CONDITIONS: read-out: IC50 (5-hLOX)
QUANTITY_KIND: IC50 (nM)

INSERT INTO measurements (molecule, quantity_kind, result_unit, number) VALUES
  ('O=C1CC(c2ccc(O)c(O)c2)Oc2cc(O)cc(O)c21 (centres unmarked) [Compound 3, 5,7,3’,4’-Tetrahydroxyflavanone]', 'IC50', 'nM', 220),
  ('COc1cc(O)c2c(c1)O[C@H](c1ccc(O)c(O)c1)CC2=O', 'IC50', 'nM', 100);

Value source: paper PMC7399337
